# GI50 per entry for MCF7 breast

Check out these entries, answers already filled in.
INSERT INTO assay_data (compound, test_system, result) VALUES
  ('COc1cc(CNC(=O)/C=C/C=C/c2ccc3c(c2)OCO3)ccc1OCc1cn(-c2ccc(Cl)c(Cl)c2)nn1', 'MCF7 breast', '0.889 µM'),
  ('O=C(N[C@H](c1ccc(Cl)c(Cl)c1)C1CNC1)c1ccc2cnccc2c1', 'MCF7 breast', '3.25 µM');

List the reported GI50 of each compound below.
1. C=C1CC[C@@H]2C(C)(C)[C@@H](O)CC[C@@]2(C)[C@@H]1COc1ccc2ccc(=O)oc2c1
2. O=C(Nc1cccc(Cl)c1)Nc1cccc(Cl)c1
3. N#Cc1ccc(Oc2nccc(-c3c(-c4ccc(F)cc4)ncn3C3CCNCC3)n2)cc1
4. COc1cc2c(cc1OCCCCNC(=O)c1cc3ccccc3[nH]1)N=CC1CCCN1C2=O (centres undefined)

1: 8.02 µM; 2: 5.79 µM; 3: 10.7 µM; 4: 6.82 µM
